Listed below: Activity values for each entry.
biological target: Lutropin-choriogonadotropic hormone receptor (Homo sapiens); assay: Displacement of [3H]Org43553 from human luteinizing hormone receptor expressed in CHOK1 cells at 10 uM by scintillation spectrometry; format: cell-based; conditions: CHO-K1
Sequence (P22888 whole entry): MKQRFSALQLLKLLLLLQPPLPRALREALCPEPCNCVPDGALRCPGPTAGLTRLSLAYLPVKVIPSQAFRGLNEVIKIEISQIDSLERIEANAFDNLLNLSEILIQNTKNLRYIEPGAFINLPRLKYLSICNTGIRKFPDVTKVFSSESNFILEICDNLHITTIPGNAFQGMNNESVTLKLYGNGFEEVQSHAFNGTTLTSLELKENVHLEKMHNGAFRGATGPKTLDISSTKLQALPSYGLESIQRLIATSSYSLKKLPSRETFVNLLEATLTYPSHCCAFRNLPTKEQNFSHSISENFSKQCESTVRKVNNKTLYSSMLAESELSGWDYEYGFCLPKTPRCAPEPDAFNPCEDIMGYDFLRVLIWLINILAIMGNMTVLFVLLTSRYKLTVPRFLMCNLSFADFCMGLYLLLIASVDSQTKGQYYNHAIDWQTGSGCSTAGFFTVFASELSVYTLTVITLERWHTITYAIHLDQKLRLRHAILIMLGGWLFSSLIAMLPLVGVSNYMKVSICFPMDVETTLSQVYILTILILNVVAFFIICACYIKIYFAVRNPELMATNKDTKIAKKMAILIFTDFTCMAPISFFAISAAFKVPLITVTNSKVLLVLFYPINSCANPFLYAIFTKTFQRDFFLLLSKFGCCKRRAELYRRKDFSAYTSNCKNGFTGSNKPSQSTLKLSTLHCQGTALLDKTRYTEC
PROPERTY_LABEL: Activity (%)

>>> df
                      smiles_representation  reading_unit  test_result
0  CCCCCNC(=O)Oc1cc(-c2ccccc2)cc(-c2ccccc2)c1             %           30
1  CC(C)(C)NC(=O)Oc1cc(-c2ccccc2)cc(-c2ccccc2)c1             %           68
2  O=C(NC1CCCC1)Oc1cc(-c2ccccc2)cc(-c2ccc(Cl)c(Cl)c2)c1             %           69
3  Cc1ccc(-c2cc(OC(=O)NC3CCCC3)cc(-c3ccccc3)c2)cc1             %           72
4  O=C(NC1CCCC1)Oc1cc(-c2ccc(Cl)cc2)cc(-c2ccc(Cl)cc2)c1             %           55
5           Oc1cc(-c2ccccc2)cc(-c2ccccc2)c1             %           -2
6  O=C(Nc1cc(-c2ccccc2)cc(-c2ccccc2)c1)C1CCCC1             %           30
7  CC(C)NC(=O)Oc1cc(-c2ccccc2)cc(-c2ccccc2)c1             %           14
8  COc1ccc(NC(=O)Oc2cc(-c3ccccc3)cc(-c3ccccc3)c2)cc1             %           58

The reported numbers originate from ChEMBL document CHEMBL1153390.
